B1: library; numbered along this chain (parent)
chain: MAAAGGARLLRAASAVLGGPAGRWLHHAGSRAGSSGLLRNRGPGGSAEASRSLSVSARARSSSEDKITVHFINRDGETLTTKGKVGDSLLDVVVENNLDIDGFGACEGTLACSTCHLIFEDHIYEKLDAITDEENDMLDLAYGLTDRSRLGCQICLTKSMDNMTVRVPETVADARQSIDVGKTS

variants of: B1; experiment: scaled log2 fold change in cell abundance, elesclomol vs control (0 = silent mean, 1 = nonsense mean) (scaled log2 ratio); higher = higher viability under elesclomol (loss of FDX1 cuproptosis function); conditions: with HEK293T FDX1 KO; elesclomol 40 nM; glucose 10 mM; 11 days;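 further: variant abundance is its share of total variant reads in each endpoint sample, from next-generation sequencing of the integrated ORF PCR-amplified out of genomic DNA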
REPORTED_PROPERTY: scaled log2 fold change

INSERT INTO measurements (mutant, reported_property, numeric_result) VALUES
  ('E48D', 'scaled log2 fold change', 0.469),
  ('G86A', 'scaled log2 fold change', 0.0692),
  ('L150G', 'scaled log2 fold change', 0.513),
  ('R41F', 'scaled log2 fold change', -0.469),
  ('E120I', 'scaled log2 fold change', 0.524),
  ('R175M', 'scaled log2 fold change', 0.0945),
  ('A129R', 'scaled log2 fold change', -0.0758),
  ('M163T', 'scaled log2 fold change', 0.00152),
  ('E107R', 'scaled log2 fold change', 1.26),
  ('C152N', 'scaled log2 fold change', 2.21),
  ('C115E', 'scaled log2 fold change', 0.99),
  ('S34V', 'scaled log2 fold change', -1.09),
  ('L144V', 'scaled log2 fold change', -0.057),
  ('K158F', 'scaled log2 fold change', 0.189),
  ('D99A', 'scaled log2 fold change', -1.37),
  ('E107S', 'scaled log2 fold change', -0.279),
  ('P43F', 'scaled log2 fold change', 0.822),
  ('L138G', 'scaled log2 fold change', 0.389),
  ('D132F', 'scaled log2 fold change', -0.336),
  ('S14L', 'scaled log2 fold change', 0.688),
  ('E48A', 'scaled log2 fold change', 0.683),
  ('G83K', 'scaled log2 fold change', 0.427),
  ('V85W', 'scaled log2 fold change', 0.889),
  ('C115L', 'scaled log2 fold change', 1.15),
  ('E134P', 'scaled log2 fold change', 1.01),
  ('K126D', 'scaled log2 fold change', 0.255),
  ('T164E', 'scaled log2 fold change', 0.119),
  ('R74N', 'scaled log2 fold change', 1.31),
  ('S159C', 'scaled log2 fold change', -0.0429),
  ('G19D', 'scaled log2 fold change', 0.874),
  ('V167N', 'scaled log2 fold change', -0.228),
  ('V180T', 'scaled log2 fold change', -0.33),
  ('S52I', 'scaled log2 fold change', -0.248),
  ('S113P', 'scaled log2 fold change', 1.16),
  ('G42D', 'scaled log2 fold change', 0.162),
  ('G19N', 'scaled log2 fold change', 0.0883),
  ('V167W', 'scaled log2 fold change', -0.0986),
  ('P43Q', 'scaled log2 fold change', -0.32),
  ('S63P', 'scaled log2 fold change', 0.000753),
  ('A4R', 'scaled log2 fold change', -1.29),
  ('M137W', 'scaled log2 fold change', 1.1),
  ('L150S', 'scaled log2 fold change', 0.331),
  ('A172G', 'scaled log2 fold change', 0.05),
  ('L10N', 'scaled log2 fold change', -0.352),
  ('L10C', 'scaled log2 fold change', 0.0724),
  ('G108Y', 'scaled log2 fold change', 1.1);
